pKd: −log10 of the molar value.
Target or system Nuclear receptor subfamily 4 group A member 2 (Homo sapiens); metric pKd; compiled from varied reports.
Measure: pKd

[[record]]
molecule = "CN(C)CCOc1ccc(Cl)cc1NC(=O)c1cc2c(ccn2C)cc1Cl"
reading = 6.00

[[record]]
molecule = "Fc1ccc(Cn2c(NC3CCNCC3)nc3ccccc32)cc1"
reading = 4.00

[[record]]
molecule = "CCCCN1CCC(CNC(=O)c2cc3[nH]ccc3cc2Cl)C1 (stereo unspecified)"
reading = 4.80

[[record]]
molecule = "CCCCC/C=C\\C/C=C\\CCCCCCCC(=O)O"
reading = 4.30

[[record]]
molecule = "Oc1ccc(CCN2CCC(Nc3nc4ccccc4n3Cc3ccc(F)cc3)CC2)cc1"
reading = 4.70

[[record]]
molecule = "O=C(NCCN1CCC2CCCCC2C1)c1cc2[nH]ccc2cc1Cl (stereo unspecified)"
reading = 5.49

